Test: Growth inhibition of human OVCAR3 cells after 48 hrs by SRB assay
Format: functional
Conditions: OVCAR-3, 48 h
// assign Satisfied if GI50 falls strictly below 1000 nM, else Not satisfied (ties count as Not satisfied)

Is it true that GI50 reported for COc1cc2c(=O)n(CCCN3CCOCC3)c3c(c2cc1O)C(=O)c1cc2c(cc1-3)OCO2 is less than 1000 nM?
Satisfied

# strict comparison: is reported GI50 < 1000 nM? input = COc1cc2c(=O)n(CCCN3CCOCC3)c3c(c2cc1OCCCN1CCOCC1)C(=O)c1cc2c(cc1-3)OCO2
Satisfied

----------
System: SN12C
Assay: Growth inhibition of human SN12C cells after 48 hrs by SRB assay
Assay type: functional
endpoint_name: GI50

Please state GI50 for every molecule in the list that follows.
1. COc1cc2c3c(n(C)c(=O)c2cc1OC)-c1cc2c(cc1C3=O)OCO2
2. COc1cc2c(=O)n(CCCN3CCOCC3)c3c(c2cc1OCCCN1CCOCC1)C(=O)c1cc2c(cc1-3)OCO2
3. C=CCOc1cc2c3c(n(CCCN4CCOCC4)c(=O)c2cc1OC)-c1cc2c(cc1C3=O)OCO2

1. 68000 nM
2. 100 nM
3. < 10 nM
